Data provenance is patent US7485665B2.

pIC50 for assorted molecules
- TARGET ENTITY: serotonin receptor 4 (Cavia porcellus, UniProt O70528)
- Sequence (O70528 whole entry): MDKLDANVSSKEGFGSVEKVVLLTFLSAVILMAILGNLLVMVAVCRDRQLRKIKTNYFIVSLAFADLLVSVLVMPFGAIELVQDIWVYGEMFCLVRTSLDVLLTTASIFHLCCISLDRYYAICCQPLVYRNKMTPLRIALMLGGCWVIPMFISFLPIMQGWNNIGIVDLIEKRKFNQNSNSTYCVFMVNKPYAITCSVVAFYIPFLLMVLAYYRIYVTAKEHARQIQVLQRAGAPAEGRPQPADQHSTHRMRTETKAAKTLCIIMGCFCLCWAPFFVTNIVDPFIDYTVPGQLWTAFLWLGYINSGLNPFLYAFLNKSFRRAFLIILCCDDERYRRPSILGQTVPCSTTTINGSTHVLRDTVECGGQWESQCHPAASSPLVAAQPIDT
Structures can show the parent of a compound that is named as a salt.
Scale: negative log10 of molar concentration, which is what pIC50 denotes.

[[record]]
molecule = "COc1cc(N)c(Cl)cc1C(=O)N[C@@H]1CN[C@H](CO)C1.Cl [Example 9, monohydrochloride]"
endpoint_value = 6.60


Now turn to the next molecule.
Using the record for CCN1CC(NC(=O)c2cc(Cl)c(N)cc2OC)CC1CO (centres unmarked) [TKS159 hydrochloride] , report its pIC50.
6.35
